Data provenance is ChEMBL document CHEMBL1150740.

- assay_remarks: Cytotoxicity against human Raji cells assessed as cell viability at 5000 mol ratio after 48 hrs relative to TPA
- Type: cell-based
- condition_notes: read-out: Activity
measured_attribute: viability at 48 h, 5000 mol ratio relative to TPA (%)
Please state the figure in %; there is no need to write the unit.

molecule: CC(=O)O[C@H]1CC[C@]2(C)[C@H]3CC=C4[C@@H]5CC(C)(C)CC[C@]5(CO)CC[C@@]4(C)[C@]3(C)CC[C@H]2C1(C)C
endpoint_result: 40

// moving on: another record for viability at 48 h, 5000 mol ratio relative to TPA
viability at 48 h, 5000 mol ratio relative to TPA measured on "CC(=O)O[C@H]1CC[C@]2(C)[C@H]3CC=C4[C@@H]5CC(C)(C)CC[C@]5(C=O)CC[C@@]4(C)[C@]3(C)CC[C@H]2C1(C)C" = 40

* * *

- System: Raji
- assay_remarks: Inhibition of TPA-induced EBV-early antigen activation in human Raji cells assessed as early antigen activation at 1000 mol ratio after 48 hrs relative to TPA
- Type: cell-based
- Set-up: scale not given: the % may be the effect or the level left
- condition_notes: human gammaherpesvirus 4
measured_attribute: Activity

Record "CC(=O)O[C@H]1CC[C@]2(C)[C@H]3CC=C4[C@@H]5CC(C)(C)CC[C@]5(C=O)CC[C@@]4(C)[C@]3(C)CC[C@H]2C1(C)C" has Raji Activity equal to 100%

Record "CC1(C)CC[C@]2(CO)CC[C@]3(C)C(=CC[C@@H]4[C@@]5(C)CC[C@H](O)C(C)(C)[C@@H]5CC[C@]43C)[C@@H]2C1" has Raji Activity equal to 19.3%

Record "CC1(C)CC[C@]2(C(=O)O)CC[C@]3(C)C(=CC[C@@H]4[C@@]5(C)CC[C@H](O)C(C)(C)[C@@H]5CC[C@]43C)[C@@H]2C1" has Raji Activity equal to 30%

Record "CC(=O)O[C@H]1CC[C@]2(C)[C@H]3CC=C4[C@@H]5CC(C)(C)CC[C@]5(CO)CC[C@@]4(C)[C@]3(C)CC[C@H]2C1(C)C" has Raji Activity equal to 32.3%

* * *

- System: Raji
- assay_remarks: Inhibition of TPA-induced EBV-early antigen activation in human Raji cells assessed as early antigen activation at 1000 mol ratio after 48 hrs relative to TPA
- Assay type: cell-based
- Design: scale not given: the % may be the effect or the level left
- condition_notes: human gammaherpesvirus 4
Here the recorded Activity is given for each entry.
Please state the figure in %; there is no need to write the unit.

// solved cases for Activity follow
molecule: C=C(C)[C@@H]1CC[C@]2(C(=O)O)CC[C@]3(C)[C@H](CC[C@@H]4[C@@]5(C)CC[C@H](O)C(C)(C)[C@@H]5CC[C@]43C)[C@@H]12 [BETULINIC ACID]
assay_target: Raji
units_of_measure: %
Activity: 80
//
molecule: C=C(C)[C@@H]1CC[C@]2(CO)CC[C@]3(C)[C@H](CC[C@@H]4[C@@]5(C)CC[C@H](O)C(C)(C)[C@@H]5CC[C@]43C)[C@@H]12 [BETULIN]
assay_target: Raji
units_of_measure: %
Activity: 100

// moving on: another record for Activity
Activity measured on "CC(=O)OC[C@]12CCC(C)(C)C[C@H]1C1=CC[C@@H]3[C@@]4(C)CC[C@H](OC(C)=O)C(C)(C)[C@@H]4CC[C@@]3(C)[C@]1(C)CC2" = 100
